Measured normalized growth, listed per entry for reference.
# test_method_notes: chemical genetic growth profiling, strain panel (AID 1159580);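 further: tested at 20 µM; growth read once vehicle control cultures reached saturation at 30 °C; 1 = growth at the plate median or of vehicle wells; lower values mean less growth of the strain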
# protocol_conditions: S. cerevisiae deletion strains, growth OD, locus YCL061C, strain MRC1 (second series), stronger effect = lower value
In all, about 5,500 compounds went through this assay and about 2,000 (36%) were called active. Another 18% or so got no clear call; they are omitted. The list shows a part of the results.
readout_type: normalized growth

In [3]: df
Out[3]:
                                    molecule  result
 0  CCC1(C2=NCCN2)Cc2ccccc2O1 (configuration not stated)    1.01
 1             O=C(O)c1cc(=O)cc(C(=O)O)[nH]1    1.01
 2  COC[C@H]1OC(=O)c2coc3c2[C@@]1(C)C1=C(C3=O)C2CCC(=O)[C@@]2(C)C[C@H]1OC(C)=O (some centres not stated)   0.141
 3  Cn1c(=O)c2c(nc(/C=C/c3cccc(Cl)c3)n2C)n(C)c1=O   0.981
 4  Cn1cc(C(=O)OCC2CCN(CCNS(C)(=O)=O)CC2)c2ccccc21    1.01
 5  COc1ccc(CNC(=O)/C=C/c2ccc3[nH]cc(CCN(C)C)c3c2)cc1   0.991
 6                Cn1c(=O)[nH]c2ncn(C)c2c1=O    1.01
 7  NC(=O)CN1CC(O)CC1=O (configuration not stated)       1
 8  COC(=O)c1c(-c2cc(OC)c(OC)c(OC)c2)c2ccnc(OCc3ncccn3)c2c(=O)n1Cc1ccnc(C)c1    1.01
 9  COc1ccc2c(c1)C13CCCCC1C(C2)N(C)CC3 (configuration not stated)       1
10                      O=C(O)c1cccnc1C(=O)O       1
11       COc1ccc(NC(=O)/C=C/c2ccc(Cl)cc2)cc1       1
12                    O=c1[nH]ccc2c(O)cccc12   0.996
13  NC(CCP(=O)(O)O)C(=O)O (configuration not stated)       1
14       CC(=O)CCCCn1c(=O)c2c(ncn2C)n(C)c1=O    1.01
15                Cn1c(=O)c2c(ncn2C)n(C)c1=O    1.01
16    Cc1ccc2c(c1)C(N1CCN(C)CC1)=Nc1cccnc1N2   0.989
17              Nc1ccc2c3c(cccc13)C(=O)NC2=O       1
18        NS(=O)(=O)c1cc2c(cc1Cl)NCNS2(=O)=O    1.01
19           CNC(=O)c1cc2c(cn1)[nH]c1ccccc12    1.01
20    Cc1cc(O)c2c(c1)C(=O)c1cc(O)cc(O)c1C2=O   0.986
21     CCCn1cnc2c1c(=O)n(CCCCC(C)=O)c(=O)n2C    1.01
22         O=C(CCc1ccc(O)cc1)c1c(O)cc(O)cc1O    1.01
23     NC1CONC1=O (configuration not stated)       1
24   CC(C)NP(=O)(NC(C)C)OP(=O)(NC(C)C)NC(C)C       1
25  COC(=O)[C@H](NC(=O)c1cc(-c2ccccc2)nc2ccccc12)c1ccccc1   0.998
26                Cn1cnc2c1c(=O)[nH]c(=O)n2C    1.01
27  O=Nc1c(-c2c(O)[nH]c3ccccc23)[nH]c2ccccc12   0.997
28         O=C(/C=C/c1ccc(O)cc1)c1ccc(O)cc1O    1.01
29  CC1=C(C)C(=O)C(CCCCC#CCCCC#CCO)=C(C)C1=O       1
30                  c1ccc2nc(C3=NCCN3)ccc2c1   0.986
31  O=C(Nc1ccc([N+](=O)[O-])cc1Cl)c1cc(Cl)ccc1O   0.999
32     CN1CCN(C2=Nc3cc(Cl)ccc3Nc3ccccc32)CC1       1
33  NC1CCc2cc(O)c(O)cc2C1 (configuration not stated)    1.01
34                    c1cnc2c(c1)ccc1cccnc12  0.0542
35  O=C(c1ccccc1)c1ccc2n1CCC2C(=O)O (configuration not stated)    1.02
36  CC(C)NC(C)Cc1ccc(I)cc1 (configuration not stated)    1.01
37                N[C@@H](Cc1cnc[nH]1)C(=O)O   0.987
38  CCCN1CCCC2Cc3[nH]ncc3CC21 (configuration not stated)       1
39           CC(=O)N[C@H](C(=O)O)C(C)(C)SN=O    1.01
40                       NC(N)=NCc1cccc(I)c1   0.991
41             C#CCn1c(=O)c2c(ncn2C)n(C)c1=O    1.01
